System: human primary T-cells, IL-2 stimulated proliferation (JAK-1 and JAK-3 dependent; reported as JAK3 activity)
protocol: Human primary T-cell proliferation stimulated by IL-2 (Example 3)
Type: cell-based
run.conditions: Homo sapiens, T-cell, tested under conditions described in Example 3 (IL-2 stimulated human primary T-cell proliferation); read-out: ability to inhibit JAK3 activity, IC50 range (Table V)
pIC50: −log10 of the molar value.
readout.type: pIC50

Q: Kindly indicate its recorded pIC50. Item: Cc1cnc(Nc2cnc(N3C[C@@H]4C[C@H]3CN4C)c(C#N)c2)nc1Nc1ccc2oc(=O)[nH]c2c1 [II-115]
Ans: > 6.30

Continuing:
Q: Kindly indicate its recorded pIC50. Item: Cc1cnc(Nc2cnc(C3CC4CCC(C3)N4C(=O)OC(C)(C)C)c(C)c2)nc1Nc1ccc2oc(=O)[nH]c2c1 (centres unmarked) [II-65]
Ans: > 6.30

Q: Kindly indicate its recorded pIC50. Item: Cc1cnc(Nc2ccc(NC3CC4CCC(C3)N4C)nc2)nc1Nc1ccc2oc(=O)[nH]c2c1 (centres unmarked) [II-37]
Ans: 5.30 to 6.30

Q: Kindly indicate its recorded pIC50. Item: Cc1cnc(Nc2cccc(Br)c2)nc1Nc1ccc2oc(=O)[nH]c2c1 [Compound I-175]
Ans: > 6.30

---

List of IC50 values.
Test system: human primary T-cells, IL-2 stimulated proliferation (JAK-1 and JAK-3 dependent; reported as JAK3 activity)
protocol: Human primary T-cell proliferation stimulated by IL-2 (Example 3)
Assay type: cell-based
run.conditions: Homo sapiens, T-cell, tested under conditions described in Example 3 (IL-2 stimulated human primary T-cell proliferation); read-out: ability to inhibit JAK3 activity, IC50 range (Table V)

Past entries and their recorded results:
Q: Kindly indicate its recorded IC50. Item: Cc1cnc(Nc2cncc(Br)c2)nc1Nc1ccc2oc(=O)[nH]c2c1 [II-77]
Ans: 500 to 5000 nM

Q: Kindly indicate its recorded IC50. Item: Cc1cnc(Nc2cc(C)c(OCCN3CCOCC3)c(C)c2)nc1Nc1ccc2oc(=O)[nH]c2c1 [Compound I-459]
Ans: < 500 nM

Q: Kindly indicate its recorded IC50. Item: Cc1cnc(Nc2ccc3cnccc3c2)nc1Nc1ccc2oc(=O)[nH]c2c1 [IV-53]
Ans: 5000 to 10000 nM

Q: Kindly indicate its recorded IC50. Item: Cc1cnc(Nc2ccc(N3CCN(C(C)C)[C@H](C)C3)nc2)nc1Nc1ccc2oc(=O)[nH]c2c1 [II-70]
Ans: < 500 nM

Q: Kindly indicate its recorded IC50. Item: Cc1cnc(Nc2ccc(N3CCNCC3)nc2)nc1Nc1ccc2oc(=O)[nH]c2c1 [II-10]
Ans: < 500 nM

Continuing:
Q: Kindly indicate its recorded IC50. Item: COc1cc(Nc2ncc(C)c(Nc3ccc4oc(=O)[nH]c4c3)n2)cc(C(C)=O)c1 [Compound I-229]
Ans: < 500 nM

Q: Kindly indicate its recorded IC50. Item: COC(=O)c1ccc(Nc2ncc(C)c(Nc3ccc4oc(=O)[nH]c4c3)n2)cc1 [Compound I-125]
Ans: < 500 nM

Q: Kindly indicate its recorded IC50. Item: CCN(CC)CCNC(=O)c1ccc(Nc2ncc(C)c(Nc3ccc4oc(=O)[nH]c4c3)n2)cc1 [Compound I-127]
Ans: < 500 nM

Q: Kindly indicate its recorded IC50. Item: Cc1cnc(Nc2ccc(N3CCC4(CCN(C)C4)C3)nc2)nc1Nc1ccc2oc(=O)[nH]c2c1 (stereo not drawn) [II-133]
Ans: < 500 nM

Q: Kindly indicate its recorded IC50. Item: Cc1cnc(Nc2cc(F)c(F)cc2F)nc1Nc1ccc2oc(=O)[nH]c2c1 [Compound I-481]
Ans: < 500 nM

Q: Kindly indicate its recorded IC50. Item: Cc1cnc(Nc2ccc(NS(C)(=O)=O)cc2)nc1Nc1ccc2[nH]c(=O)[nH]c2c1 [Compound I-50]
Ans: < 500 nM

---

System: human primary T-cells, IL-2 stimulated proliferation (JAK-1 and JAK-3 dependent; reported as JAK3 activity)
protocol: Human primary T-cell proliferation stimulated by IL-2 (Example 3)
Assay type: cell-based
run.conditions: Homo sapiens, T-cell, tested under conditions described in Example 3 (IL-2 stimulated human primary T-cell proliferation); read-out: ability to inhibit JAK3 activity, IC50 range (Table V)
pIC50: −log10 of the molar value.
readout.type: pIC50

Past entries and their recorded results:
Q: Kindly indicate its recorded pIC50. Item: CC(=O)NC1CCN(c2ccc(Nc3ncc(C)c(Nc4ccc5oc(=O)[nH]c5c4)n3)cn2)C1 (stereo not shown) [II-81]
Ans: > 6.30

Q: Kindly indicate its recorded pIC50. Item: Cc1cnc(Nc2ccc(C(N)=O)cc2)nc1Nc1ccc2oc(=O)n(COP(=O)(OC(C)(C)C)OC(C)(C)C)c2c1 [Compound I-146]
Ans: 5.30 to 6.30

Q: Kindly indicate its recorded pIC50. Item: Cc1cnc(Nc2ccc(N3CCC(N4CCOCC4)C3)nc2)nc1Nc1ccc2oc(=O)[nH]c2c1 (stereo not shown) [II-84]
Ans: > 6.30

Q: Kindly indicate its recorded pIC50. Item: Cc1cnc(Nc2ccc(NC3CC4CCC(C3)N4C)cc2)nc1Nc1ccc2oc(=O)[nH]c2c1 (stereo not shown) [Compound I-121]
Ans: 5.30 to 6.30

Q: Kindly indicate its recorded pIC50. Item: Cc1cnc(Nc2cccc(C(=O)N3CCCC3)c2)nc1Nc1ccc2oc(=O)[nH]c2c1 [Compound I-246]
Ans: > 6.30

Q: Kindly indicate its recorded pIC50. Item: COc1cc(Nc2ncc(C)c(Nc3ccc4oc(=O)[nH]c4c3)n2)cc(C(C)NC2CC2)c1 (stereo not shown) [Compound I-233]
Ans: > 6.30

Q: Kindly indicate its recorded pIC50. Item: COc1ccc(Nc2ncc(C)c(Nc3ccc4oc(=O)[nH]c4c3)n2)cc1 [Compound I-272]
Ans: > 6.30

Q: Kindly indicate its recorded pIC50. Item: COc1ccc(Nc2ncc(C)c(Nc3ccc4oc(=O)[nH]c4c3)n2)cc1C(=O)N1CCCC1 [Compound I-261]
Ans: > 6.30

Q: Kindly indicate its recorded pIC50. Item: Cc1cnc(Nc2ccc3onc(C)c3c2)nc1Nc1ccc2oc(=O)[nH]c2c1 [IV-9]
Ans: > 6.30

Q: Kindly indicate its recorded pIC50. Item: NS(=O)(=O)c1ccc(Nc2ncc(F)c(Nc3ccc4[nH]c(=O)[nH]c4c3)n2)cc1 [Compound I-13]
Ans: 5.30 to 6.30

Continuing:
Q: Kindly indicate its recorded pIC50. Item: Cc1cnc(Nc2ccc(C(N)=O)cc2)nc1Nc1ccc2oc(=O)[nH]c2c1 [Compound I-3]
Ans: > 6.30

Q: Kindly indicate its recorded pIC50. Item: Cc1cnc(Nc2cc(Cl)c(F)c(C(F)(F)F)c2)nc1Nc1ccc2oc(=O)[nH]c2c1 [Compound I-230]
Ans: 5.30 to 6.30

Q: Kindly indicate its recorded pIC50. Item: COc1cc(Nc2ncc(C)c(Nc3ccc4oc(=O)[nH]c4c3)n2)cc(C)c1C [Compound I-535]
Ans: > 6.30

---

Test system: human primary T-cells, IL-2 stimulated proliferation (JAK-1 and JAK-3 dependent; reported as JAK3 activity)
protocol: Human primary T-cell proliferation stimulated by IL-2 (Example 3)
Format: cell-based
run.conditions: Homo sapiens, T-cell, tested under conditions described in Example 3 (IL-2 stimulated human primary T-cell proliferation); read-out: ability to inhibit JAK3 activity, IC50 range (Table V)
readout.type: IC50

Past entries and their recorded results:
Q: Kindly indicate its recorded IC50. Item: `Cc1cnc(Nc2ccccc2F)nc1Nc1ccc2oc(=O)[nH]c2c1`
Ans: < 500 nM

Q: Kindly indicate its recorded IC50. Item: `CC(=O)c1ccc(Nc2ncc(C)c(Nc3ccc4oc(=O)[nH]c4c3)n2)cc1`
Ans: < 500 nM

Q: Kindly indicate its recorded IC50. Item: `Cc1cnc(Nc2ccc(N3CCN(C)CC3)nc2)nc1Nc1ccc2[nH]c(=O)oc2c1`
Ans: < 500 nM

Q: Kindly indicate its recorded IC50. Item: `Cc1cnc(Nc2cc(F)cc(N3CCOCC3)c2)nc1Nc1ccc2oc(=O)[nH]c2c1`
Ans: < 500 nM

Q: Kindly indicate its recorded IC50. Item: `Cc1cnc(Nc2ccc(OCCC(C)C)cc2)nc1Nc1ccc2oc(=O)[nH]c2c1`
Ans: > 10000 nM

Continuing:
Q: Kindly indicate its recorded IC50. Item: `CCOc1ccc(Nc2ncc(C)c(Nc3ccc4oc(=O)[nH]c4c3)n2)cc1Cl`
Ans: < 500 nM

Q: Kindly indicate its recorded IC50. Item: `Cc1cnc(Nc2ccc(N3CCC(C)CC3)nc2)nc1Nc1ccc2oc(=O)[nH]c2c1`
Ans: > 10000 nM

---

Test system: human primary T-cells, IL-2 stimulated proliferation (JAK-1 and JAK-3 dependent; reported as JAK3 activity)
protocol: Human primary T-cell proliferation stimulated by IL-2 (Example 3)
Format: cell-based
run.conditions: Homo sapiens, T-cell, tested under conditions described in Example 3 (IL-2 stimulated human primary T-cell proliferation); read-out: ability to inhibit JAK3 activity, IC50 range (Table V)
pIC50: −log10 of the molar value.
List of pIC50 values.

Past entries and their recorded results:
Q: Kindly indicate its recorded pIC50. Item: COc1cc(Nc2ncc(C)c(Nc3ccc4oc(=O)[nH]c4c3)n2)cc(C)c1OC [Compound I-452]
Ans: > 6.30

Q: Kindly indicate its recorded pIC50. Item: Cc1cnc(Nc2ccc(Cl)c(OC(F)(F)F)c2)nc1Nc1ccc2oc(=O)[nH]c2c1 [Compound I-180]
Ans: > 6.30

# evaluate next
Q: Kindly indicate its recorded pIC50. Item: Cc1cnc(Nc2cnc(N3CC4CC3CN4)c(F)c2)nc1Nc1ccc2oc(=O)[nH]c2c1 (stereo not drawn) [II-51]
Ans: > 6.30
